Values compiled from patent US20260151494A1.

molecular target: T1, human CD71 extracellular domain (human, UniProt P02786 89-760, biotinylated); assay: primary ELISA; also: test concentration or dose not given here
T1 construct: also called hCD71; CD71-ECD
T1 sequence (P02786 89-760): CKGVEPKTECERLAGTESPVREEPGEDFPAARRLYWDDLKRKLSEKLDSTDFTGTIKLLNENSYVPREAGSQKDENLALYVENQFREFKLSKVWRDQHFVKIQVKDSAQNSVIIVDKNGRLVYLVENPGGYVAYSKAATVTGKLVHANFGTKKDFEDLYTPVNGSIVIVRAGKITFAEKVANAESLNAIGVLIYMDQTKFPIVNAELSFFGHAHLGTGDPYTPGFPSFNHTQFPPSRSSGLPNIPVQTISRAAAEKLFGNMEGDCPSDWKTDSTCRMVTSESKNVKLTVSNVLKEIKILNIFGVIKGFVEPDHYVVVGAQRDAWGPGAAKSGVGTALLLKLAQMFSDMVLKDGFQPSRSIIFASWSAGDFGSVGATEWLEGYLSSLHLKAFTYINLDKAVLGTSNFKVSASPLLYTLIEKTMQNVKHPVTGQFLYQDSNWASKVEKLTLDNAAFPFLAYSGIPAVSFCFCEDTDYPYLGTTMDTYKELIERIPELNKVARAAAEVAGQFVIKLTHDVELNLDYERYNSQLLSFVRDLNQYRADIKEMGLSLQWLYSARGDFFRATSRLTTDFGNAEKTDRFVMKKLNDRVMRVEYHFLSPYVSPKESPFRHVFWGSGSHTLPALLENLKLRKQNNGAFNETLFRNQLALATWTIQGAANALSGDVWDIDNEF
measurementName: RLU (RLU)

1: CD71-binding FN3 domain of SEQ ID NO: 455 (designed binder) MLPAPKNLVVSRVTEDSARLSWTAPDAAFDSFTISYPEEAKHGEAIVLTVPGSERSYDLTGLKPGTEYGVPINGVKGGVSSLPLSAIFTT
2: CD71-binding FN3 domain of SEQ ID NO: 457 (designed binder) MLPAPKNLVVSRVTEDSARLSWTAPDAAFDSFFIGYLEPQPPGEAIVLLVPGSERSYDLTGLKPGTEYNVTIQGVKGGFPSAPLVATFTT
// select label with min value of measured RLU from [ 1 , 2 ] Reply briefly: the label of your chosen item.
1
(1: 1.56e+06 RLU, 2: 5.54e+06 RLU)
